Source of measurements: patent US7842698B2

# measured on: Human recombinant GST-PI3Kγ (Homo sapiens, UniProt P48736)
# Sequence (P48736 whole entry): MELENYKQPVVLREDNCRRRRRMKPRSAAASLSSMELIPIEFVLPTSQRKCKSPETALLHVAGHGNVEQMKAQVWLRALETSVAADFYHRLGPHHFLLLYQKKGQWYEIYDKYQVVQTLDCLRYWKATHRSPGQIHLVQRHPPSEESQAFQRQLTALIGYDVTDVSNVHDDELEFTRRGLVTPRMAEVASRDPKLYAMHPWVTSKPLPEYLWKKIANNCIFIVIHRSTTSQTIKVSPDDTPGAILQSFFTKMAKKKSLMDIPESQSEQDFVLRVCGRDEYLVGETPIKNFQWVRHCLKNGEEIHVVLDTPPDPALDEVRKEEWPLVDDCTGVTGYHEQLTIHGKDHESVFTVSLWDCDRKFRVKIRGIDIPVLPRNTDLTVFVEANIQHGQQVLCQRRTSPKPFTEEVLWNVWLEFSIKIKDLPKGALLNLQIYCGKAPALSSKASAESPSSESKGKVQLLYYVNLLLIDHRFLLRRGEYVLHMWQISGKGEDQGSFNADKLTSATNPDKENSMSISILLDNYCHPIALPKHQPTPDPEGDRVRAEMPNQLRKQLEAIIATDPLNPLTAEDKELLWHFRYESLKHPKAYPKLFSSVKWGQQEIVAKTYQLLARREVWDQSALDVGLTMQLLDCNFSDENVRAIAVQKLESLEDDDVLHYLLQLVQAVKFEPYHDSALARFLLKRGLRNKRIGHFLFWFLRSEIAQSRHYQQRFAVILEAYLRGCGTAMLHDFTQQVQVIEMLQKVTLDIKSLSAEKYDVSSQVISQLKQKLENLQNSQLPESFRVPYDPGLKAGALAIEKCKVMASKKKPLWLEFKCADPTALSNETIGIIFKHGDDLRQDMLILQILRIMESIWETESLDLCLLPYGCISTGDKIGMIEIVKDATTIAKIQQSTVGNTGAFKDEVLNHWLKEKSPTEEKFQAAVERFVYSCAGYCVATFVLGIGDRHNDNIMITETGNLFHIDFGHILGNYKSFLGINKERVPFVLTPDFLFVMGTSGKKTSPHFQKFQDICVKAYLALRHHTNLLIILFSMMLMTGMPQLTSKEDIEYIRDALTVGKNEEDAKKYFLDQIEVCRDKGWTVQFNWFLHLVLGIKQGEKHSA
# test summary: High throughput PI3K lipid kinase assay (scintillation proximity assay, neomycin-coated SPA beads)
# applied conditions: [33P]γ-ATP, 180 minutes at room temperature
Counter-ions that a name gives are not always drawn.
readout type: IC50 (nM)
Hi! Could you send only the number? It should be in nM, unit omitted.

Known IC50 results, listed for orientation:
COc1cc(OC)cc(-n2cnc3ccc(/C=C4\SC(=O)NC4=O)nc32)c1 = 10
CN(C)CCCC(=O)N1CCc2cc(-n3cnc4ccc(/C=C5\SC(=O)NC5=O)nc43)ccc21 = 7

Now for the compound whose IC50 we want.
Task item: Return reported IC50; argument: O=C1NC(=O)/C(=C/c2ccc3ncnc(N4CCC(C(F)(F)F)CC4)c3n2)S1 [Example 3, potassium salt]
Reply: 6
